Biological target: GR (Homo sapiens, UniProt P04150)
Sequence (P04150 whole entry): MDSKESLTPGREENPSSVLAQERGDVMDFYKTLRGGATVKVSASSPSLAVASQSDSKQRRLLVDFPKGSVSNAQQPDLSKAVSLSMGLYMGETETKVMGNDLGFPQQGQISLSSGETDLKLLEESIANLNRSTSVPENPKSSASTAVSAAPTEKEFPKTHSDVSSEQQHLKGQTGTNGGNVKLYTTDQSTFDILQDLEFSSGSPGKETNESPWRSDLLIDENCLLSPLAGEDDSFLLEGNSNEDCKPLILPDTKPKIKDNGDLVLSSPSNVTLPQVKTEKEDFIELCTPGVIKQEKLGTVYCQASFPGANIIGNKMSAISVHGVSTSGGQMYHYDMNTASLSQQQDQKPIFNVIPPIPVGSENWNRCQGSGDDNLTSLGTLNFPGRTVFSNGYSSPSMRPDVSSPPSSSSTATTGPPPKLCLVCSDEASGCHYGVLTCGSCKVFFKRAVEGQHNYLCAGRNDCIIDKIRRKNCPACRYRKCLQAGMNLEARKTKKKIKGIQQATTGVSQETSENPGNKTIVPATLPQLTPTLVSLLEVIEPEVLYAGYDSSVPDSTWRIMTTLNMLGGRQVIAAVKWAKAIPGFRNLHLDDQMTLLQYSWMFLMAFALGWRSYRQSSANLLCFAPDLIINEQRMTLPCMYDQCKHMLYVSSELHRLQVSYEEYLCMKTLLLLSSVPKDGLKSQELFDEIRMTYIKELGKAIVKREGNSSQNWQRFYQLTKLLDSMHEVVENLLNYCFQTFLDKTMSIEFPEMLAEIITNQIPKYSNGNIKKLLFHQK
Experiment: Transrepression Assay (GITAR), TNFα-β-lactamase reporter, U937 cells
Format: cell-based
Set-up: U937 cells contain an endogenous glucocorticoid receptor (GR); endogenous in cells; host or cells: U937 cells stably transfected with the TNF-alpha promoter beta-lactamase reporter
Conditions: U937 cells; activity repressed by 100 nM dexamethasone set as 100%
Source text: This assay assesses the ability of test compounds to control transcription from the TNFα-β-lactamase reporter gene in U937 cells, a human myelomonocytic leukemia cell line that naturally expresses the human GR. The assay measures compound dependent-repression of the TNFa promoter linked to a reporter gene. The human U937 cells that had been stablely transfected with the TNF-α promoter driving […] are used for this assay. U937 cells contain an endogenous glucocorticoid receptor (GR). […]
Measurement label: Transrepression U937 Cells GITAR Emax (%)
Provide the reading as a plain figure in %.

C[C@]12Cc3cnn(-c4ccc(F)cc4)c3C=C1CC[C@@]2(O)CC(O)c1ccccn1 (single isomer, unassigned) [Example 2b]    68.6
C[C@]12Cc3cnn(-c4ccc(F)cc4)c3C=C1CC[C@@]2(O)CC(O)c1cc(Cl)ccn1 (single isomer, unassigned) [Example 8b]    91.1

Now let's try a different one.
Query: So what's the measured Transrepression U937 Cells GITAR Emax for this one? C[C@]12Cc3cnn(-c4ccc(F)cc4)c3C=C1CC[C@@]2(O)CC(O)c1ccc(F)cn1 (single isomer, unassigned) [Example 7b]
Reply: 83.0

====

Experiment: Solubility at pH 2
Assay type: physicochemical
Settings: pH 2, aqueous buffer, pH 2; read-out: Solubility At pH 2
Decision: solubility compared against 100 µM; not below it gives 1, below it gives 0.

Some solved entries appear below for comparison.
C[C@]12Cc3cnn(-c4ccc(F)cc4)c3C=C1CC[C@@]2(O)CC(O)c1ncccc1F (some centres unmarked)    0
C[C@]12Cc3cnn(-c4ccc(F)cc4)c3C=C1CC[C@@]2(O)CC(O)c1ccc(F)cn1 (single isomer, unassigned)    0
Cc1cccnc1C(O)C[C@]1(O)CCC2=Cc3c(cnn3-c3ccc(F)cc3)C[C@@]21C (single isomer, unassigned)    1
C[C@]12Cc3cnn(-c4ccc(F)cc4)c3C=C1CC[C@@]2(O)CC(O)c1ccc(C(F)(F)F)cn1 (some centres unmarked)    0
C[C@]12Cc3cnn(-c4ccc(F)cc4)c3C=C1CC[C@@]2(O)CC(O)c1cc(C#N)ccn1 (some centres unmarked)    1
Cc1ccnc(C(O)C[C@]2(O)CCC3=Cc4c(cnn4-c4ccc(F)cc4)C[C@@]32C)c1 (some centres unmarked)    1
C[C@]12Cc3cnn(-c4ccc(F)cc4)c3C=C1CC[C@@]2(O)CC(O)c1ccccn1 (single isomer, unassigned)    1

// switching to the query molecule
Query: Does the reported solubility for COc1ccnc(C(O)C[C@]2(O)CCC3=Cc4c(cnn4-c4ccc(F)cc4)C[C@@]32C)c1 (some centres unmarked) fall at or above the 100 µM mark?
Reply: 1

====

Target: UniProt:P04150
Experiment: Trans-Activation Modulation of Glucocorticoid Receptor Assay (GRAMMER), MMTV-LUC reporter, A549 cells
Assay type: cell-based
Set-up: endogenous in cells
Conditions: A549, Table 4, literature compounds; read-out: GRAMMER EMAX
Measurement label: Emax (%)
Provide the reading as a plain figure in %.

CO[C@@]1(CCc2ccccc2Cl)CCC2=Cc3c(cnn3-c3ccc(F)cc3)C[C@@]21C [Ex. 103 WO 04/075840 A2, reference compound]    115

Query: So what's the measured Emax for this one? C[C@]12Cc3cnn(-c4ccc(F)cc4)c3C=C1CCC[C@@H]2[C@@H](O)c1ccccc1 [Ex. 35 WO 03/86294 A2, reference compound]
Reply: 40.2

Query: So what's the measured Emax for this one? C[C@]12Cc3cnn(-c4ccc(F)cc4)c3C=C1CC[C@@]2(O)C#Cc1ccccc1 [Ex. 1 WO 04/075840 A2, reference compound]
Reply: 6.19

Query: So what's the measured Emax for this one? C[C@]12Cc3cnn(-c4ccc(F)cc4)c3C=C1CCC[C@@H]2[C@@H](O)Cc1ccccc1 [Ex. 22 WO 03/086294 A2, reference compound]
Reply: 61
